Give GI50 for every item shown.
test system: T47D; experiment: Antiproliferative activity against human T47D cells assessed as growth inhibition after 48 hrs by SRB assay; format: functional

These solved cases illustrate the format of a correct answer.
c1ccc2c(N3CCCCC3)c3c(nc2c1)CCCC3	5.2 µM
c1ccc2c(N3CCCC3)c3c(nc2c1)CCCC3	18 µM
O=c1[nH]cc(F)c(=O)[nH]1 [FLUOROURACIL]	47 µM
COc1ccc(/C=N/c2c3c(nc4ccccc24)CCCC3)cc1OC	35 µM

Here is another compound to look at.
Exercise: If you can, please state the reported GI50 value of `BrCCCCCOCCc1ccc(OCc2ccccc2)cc1` .
Key: 92 µM

* * *

The following are reported log10(Ki) results, target or system Cholinesterase (Equus caballus, UniProt P81908).
The common logarithm of Ki in nM is what is listed.

These solved cases illustrate the format of a correct answer.
COc1ccc(CCOCCCCCNc2c3c(nc4ccccc24)CCCC3)cc1OC	0.85
Oc1ccc(CCOCCCCCNc2c3c(nc4ccccc24)CCCC3)cc1O	1.63
c1ccc(COc2ccc(CCNc3c4c(nc5ccccc35)CCCC4)cc2OCc2ccccc2)cc1	1.34
Oc1ccc(CNc2c3c(nc4ccccc24)CCCC3)cc1	1.08
Oc1ccc(CNCCCCCCNc2c3c(nc4ccccc24)CCCC3)cc1O	0.90
c1ccc2c(N3CCCC3)c3c(nc2c1)CCCC3	3.08
COc1ccc(CNCCCCCNc2c3c(nc4ccccc24)CCCC3)cc1OC	1.48
Oc1ccc(CNc2c3c(nc4ccccc24)CCCC3)cc1O	1.40

Can you give me log10(Ki) for all of these, one by one?
1. COc1ccc(/C=N/c2c3c(nc4ccccc24)CCCC3)cc1OC
2. COc1ccc(CCOCCCCCNc2c3c(nc4ccccc24)CCCC3)cc1
3. c1ccc2c(N3CCCCC3)c3c(nc2c1)CCCC3

Key:
1: 2.43; 2: 1.46; 3: 3.28

* * *

experiment: Cytotoxicity against human HepG2 cells assessed as cell survival at 1 to 25 uM after 24 hrs by MTT assay relative to control; format: cell-based; conditions: read-out: Activity
OUTCOME MEASURE: viability at 24 h, 25 µM

Exercise: If you can, please state the reported viability at 24 h, 25 µM value of `COc1ccc(CCOCCCCCNc2c3c(nc4ccccc24)CCCC3)cc1OC` .
Key: 60 to 70%

* * *

The following are reported Ki results, target or system UniProt:P81908.
One number for each entry, in nM.

These solved cases illustrate the format of a correct answer.
Oc1ccc(/C=N/c2c3c(nc4ccccc24)CCCC3)cc1O	11
Oc1ccc(CCNc2c3c(nc4ccccc24)CCCC3)cc1O	128
Oc1cc(/C=N/c2c3c(nc4ccccc24)CCCC3)cc(O)c1O	51
c1ccc(COc2ccc(CCNc3c4c(nc5ccccc35)CCCC4)cc2)cc1	22
C(=N\c1c2c(nc3ccccc13)CCCC2)/c1ccc(OCc2ccccc2)c(OCc2ccccc2)c1	637

Here is another compound to look at.
Exercise: If you can, please state the reported Ki value of `C(=N\c1c2c(nc3ccccc13)CCCC2)/c1ccc(OCc2ccccc2)cc1` .
Key: 2920

* * *

molecular target: UniProt P81908
OUTCOME MEASURE: pKi
Answers are plain numbers, as −log10 of the molar value.

Can you give me pKi for all of these, one by one?
1. C(=N\c1c2c(nc3ccccc13)CCCC2)/c1cc(OCc2ccccc2)c(OCc2ccccc2)c(OCc2ccccc2)c1
2. c1ccc(COc2ccc(CCOCCCCCNc3c4c(nc5ccccc35)CCCC4)cc2)cc1
3. Oc1ccc(/C=N/c2c3c(nc4ccccc24)CCCC3)cc1O
4. c1ccc2c(N3CCCC3)c3c(nc2c1)CCCC3
5. COc1ccc(CCOCCCCCNc2c3c(nc4ccccc24)CCCC3)cc1OC

Key:
1: 6.72; 2: 8.82; 3: 8.72; 4: 6.52; 5: 8.72

* * *

experiment: Cytotoxicity in rat Primary cerebellar granule neuron assessed as cell viability at 1 uM after 24 hrs by MTT assay; type: cell-based, Cerebellar granule neurone; conditions: primary cerebellar granule neurons, read-out: Activity
OUTCOME MEASURE: viability at 24 h, 1 µM (%)
Answers are plain numbers, in %.

Exercise: If you can, please state the reported viability at 24 h, 1 µM value of `c1ccc(COc2ccc(CCOCCCCCNc3c4c(nc5ccccc35)CCCC4)cc2OCc2ccccc2)cc1` .
Key: 50

* * *

The following are reported pKi results, target or system Acetylcholinesterase (Electrophorus electricus, UniProt O42275).
Give bare numbers, as −log10 of the molar value.

These solved cases illustrate the format of a correct answer.
COc1ccc(/C=N/c2c3c(nc4ccccc24)CCCC3)cc1OC	5.60
Oc1ccc(CNc2c3c(nc4ccccc24)CCCC3)cc1O	6.72
COc1ccc(CCOCCCCCNc2c3c(nc4ccccc24)CCCC3)cc1OC	6.77
Oc1ccc(CNCCCCCCNc2c3c(nc4ccccc24)CCCC3)cc1O	6.92
C(=N\c1c2c(nc3ccccc13)CCCC2)/c1ccc(OCc2ccccc2)c(OCc2ccccc2)c1	4.62
c1ccc2c(N3CCCCC3)c3c(nc2c1)CCCC3	5.74

Can you give me pKi for all of these, one by one?
1. c1ccc(COc2ccc(CCNc3c4c(nc5ccccc35)CCCC4)cc2OCc2ccccc2)cc1
2. COc1ccc(CNCCCCCNc2c3c(nc4ccccc24)CCCC3)cc1OC

Key:
5.80
6.80

Can you give me pKi for all of these, one by one?
1. c1ccc(COc2ccc(CCNc3c4c(nc5ccccc35)CCCC4)cc2)cc1
2. Oc1ccc(CCNc2c3c(nc4ccccc24)CCCC3)cc1O
3. Oc1ccc(CCOCCCCCNc2c3c(nc4ccccc24)CCCC3)cc1
4. C(=N\c1c2c(nc3ccccc13)CCCC2)/c1cc(OCc2ccccc2)c(OCc2ccccc2)c(OCc2ccccc2)c1
5. Oc1ccc(CCOCCCCCNc2c3c(nc4ccccc24)CCCC3)cc1O
6. Oc1cc(/C=N/c2c3c(nc4ccccc24)CCCC3)cc(O)c1O

Key:
1. 5.80
2. 6.06
3. 6.85
4. 5.64
5. 6.68
6. 6.40

* * *

The following are reported log10 of Ki results, target or system Cholinesterase (Equus caballus, UniProt P81908).
The common logarithm of Ki in nM is what is listed.

c1ccc(COc2ccc(CCNc3c4c(nc5ccccc35)CCCC4)cc2OCc2ccccc2)cc1	0.04

Can you give me log10 of Ki for all of these, one by one?
1. c1ccc2c(N3CCCCC3)c3c(nc2c1)CCCC3
2. Oc1ccc(/C=N/c2c3c(nc4ccccc24)CCCC3)cc1
3. COc1ccc(CNc2c3c(nc4ccccc24)CCCC3)cc1OC
4. Oc1cc(/C=N/c2c3c(nc4ccccc24)CCCC3)cc(O)c1O
5. c1ccc(COc2ccc(CCOCCCCCNc3c4c(nc5ccccc35)CCCC4)cc2OCc2ccccc2)cc1
6. Oc1ccc(CNCCCCCCNc2c3c(nc4ccccc24)CCCC3)cc1O

Key:
1: 2.44; 2: 1.23; 3: 0.81; 4: 0.76; 5: 0.43; 6: 0.23

* * *

tested on: HBL-100; experiment: Antiproliferative activity against human HBL100 cells assessed as growth inhibition after 48 hrs by SRB assay; format: functional; conditions: HBL-100, 48 h
Give GI50 for every item shown.
One number for each entry, in µM.

These solved cases illustrate the format of a correct answer.
O=c1[nH]cc(F)c(=O)[nH]1	5.5
c1ccc2c(N3CCCC3)c3c(nc2c1)CCCC3	27
COc1ccc(/C=N/c2c3c(nc4ccccc24)CCCC3)cc1OC	43

Here is another compound to look at.
Exercise: If you can, please state the reported GI50 value of `c1ccc2c(N3CCCCC3)c3c(nc2c1)CCCC3` .
Key: 19

* * *

Give IC50 for every item shown.
target: Acetylcholinesterase (Homo sapiens); assay: Inhibition of human recombinant AChE expressed in HEK293 cells using […] as substrate preincubated with enzyme for 20 mins followed by substrate addition and measured after 5 mins by Ellman's method
Sequence (P22303 whole entry): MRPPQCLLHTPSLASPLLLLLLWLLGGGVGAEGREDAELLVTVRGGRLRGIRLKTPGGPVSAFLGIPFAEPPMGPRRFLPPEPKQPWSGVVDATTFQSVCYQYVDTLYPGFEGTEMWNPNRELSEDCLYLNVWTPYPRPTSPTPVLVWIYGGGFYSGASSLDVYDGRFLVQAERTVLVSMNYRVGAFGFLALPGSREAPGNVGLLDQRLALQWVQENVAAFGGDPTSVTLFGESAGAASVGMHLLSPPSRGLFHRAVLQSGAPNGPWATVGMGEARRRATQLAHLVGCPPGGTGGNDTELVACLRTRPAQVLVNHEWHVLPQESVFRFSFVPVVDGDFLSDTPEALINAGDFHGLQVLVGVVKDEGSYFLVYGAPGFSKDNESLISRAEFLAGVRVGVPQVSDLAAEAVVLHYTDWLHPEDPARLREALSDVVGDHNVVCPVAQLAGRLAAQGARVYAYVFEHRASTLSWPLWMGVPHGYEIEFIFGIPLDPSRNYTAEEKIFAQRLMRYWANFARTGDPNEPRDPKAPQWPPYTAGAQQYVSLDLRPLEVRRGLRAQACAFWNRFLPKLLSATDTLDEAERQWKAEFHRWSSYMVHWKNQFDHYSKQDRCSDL

These solved cases illustrate the format of a correct answer.
Oc1ccc(/C=N/c2c3c(nc4ccccc24)CCCC3)cc1O	609 nM
Oc1ccc(CCOCCCCCNc2c3c(nc4ccccc24)CCCC3)cc1O	542 nM

Here is another compound to look at.
Exercise: If you can, please state the reported IC50 value of `Oc1cc(/C=N/c2c3c(nc4ccccc24)CCCC3)cc(O)c1O` .
Key: 1040 nM

* * *

target: Acetylcholinesterase (Electrophorus electricus, UniProt O42275)
Sequence (O42275 whole entry): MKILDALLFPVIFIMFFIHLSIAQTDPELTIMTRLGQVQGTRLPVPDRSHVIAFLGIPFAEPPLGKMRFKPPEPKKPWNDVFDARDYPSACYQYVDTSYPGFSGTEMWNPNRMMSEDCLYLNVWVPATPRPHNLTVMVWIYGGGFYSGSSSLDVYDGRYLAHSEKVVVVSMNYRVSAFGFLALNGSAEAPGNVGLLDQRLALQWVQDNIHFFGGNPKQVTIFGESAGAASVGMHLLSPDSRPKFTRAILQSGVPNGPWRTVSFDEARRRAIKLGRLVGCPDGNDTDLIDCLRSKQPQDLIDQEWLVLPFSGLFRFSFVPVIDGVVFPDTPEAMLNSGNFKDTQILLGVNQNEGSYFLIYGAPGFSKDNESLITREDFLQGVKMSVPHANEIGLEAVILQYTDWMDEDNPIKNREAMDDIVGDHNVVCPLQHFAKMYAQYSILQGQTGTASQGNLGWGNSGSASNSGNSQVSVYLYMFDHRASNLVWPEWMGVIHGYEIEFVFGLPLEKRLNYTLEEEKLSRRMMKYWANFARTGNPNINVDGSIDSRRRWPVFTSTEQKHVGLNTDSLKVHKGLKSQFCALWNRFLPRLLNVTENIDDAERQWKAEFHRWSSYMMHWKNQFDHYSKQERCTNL
// returns false (0) unless Ki is strictly below 800 nM, in which case true (1)

c1ccc(COc2ccc(CCOCCCCCNc3c4c(nc5ccccc35)CCCC4)cc2)cc1	true (1)
COc1ccc(/C=N/c2c3c(nc4ccccc24)CCCC3)cc1OC	false (0)
c1ccc(COc2ccc(CCNc3c4c(nc5ccccc35)CCCC4)cc2OCc2ccccc2)cc1	true (1)
C(=N\c1c2c(nc3ccccc13)CCCC2)/c1ccc(OCc2ccccc2)c(OCc2ccccc2)c1	false (0)
Oc1ccc(CCOCCCCCNc2c3c(nc4ccccc24)CCCC3)cc1	true (1)

Pending compound:
Exercise: Hello, is Ki of the following compound strictly smaller than 800 nM? `Oc1ccc(/C=N/c2c3c(nc4ccccc24)CCCC3)cc1`
Key: false (0)

Measured values drawn from ChEMBL document CHEMBL4359860 for this set.
